This collection of values is drawn from paper PMC11012124.

- Tested on: RXF 393
- Experimental protocol: cells
- Cond: Homo sapiens, RXF 393, 48 h
Metric: GI50

>  <Molecule>
Cc1ccc(C2CC(c3ccc(S(=O)(=O)NCCNc4nc(Nc5ccc(F)cc5)nc(N(C)C)n4)cc3)=Nc3c(N)nc(N)nc3N2)cc1 (stereo not drawn) [31b]

>  <Metric>
GI50

>  <Value>
2.27 µM

$$$$
>  <Molecule>
Cc1ccc(/C=C/C(=O)c2ccc(S(=O)(=O)NCCNc3nc(Nc4ccc(F)cc4)nc(N(C)C)n3)cc2)cc1 [24b]

>  <Metric>
GI50

>  <Value>
4.98 µM

$$$$
>  <Molecule>
CN(C)c1nc(NCCNS(=O)(=O)c2ccc(C(=O)/C=C/c3ccc(Cl)cc3)cc2)nc(Nc2ccc(F)cc2)n1 [24e]

>  <Metric>
GI50

>  <Value>
3.09 µM

$$$$
>  <Molecule>
COc1cc(/C=C/C(=O)c2cc(OC)c(OC)c(OC)c2)ccc1Oc1nc(NCCO)nc(N2CCOCC2)n1 [20d]

>  <Metric>
GI50

>  <Value>
1.75 µM

$$$$
>  <Molecule>
CN(C)c1nc(NCCNS(=O)(=O)c2ccc(C3=Nc4c(N)nc(N)nc4NC(c4ccc(C(F)(F)F)cc4)C3)cc2)nc(N2CCOCC2)n1 (stereo not drawn) [30g]

>  <Metric>
GI50

>  <Value>
10.3 µM

$$$$
>  <Molecule>
CN(C)c1nc(NCCNS(=O)(=O)c2ccc(C(=O)/C=C/c3ccc(C(F)(F)F)cc3)cc2)nc(Nc2ccc(F)cc2)n1 [24g]

>  <Metric>
GI50

>  <Value>
3.7 µM

$$$$

====

CC50 for assorted molecules
- Test system: A549/ATCC
- Experimental protocol: cells
- Cond: Homo sapiens, A549, 48 h, read-out: LC50
Metric: CC50

>  <Molecule>
CN(C)c1nc(NCCNS(=O)(=O)c2ccc(C(=O)/C=C/c3ccccc3)cc2)nc(Nc2ccc(F)cc2)n1 [24a]

>  <Value>
73.5 µM

$$$$
>  <Molecule>
Nc1nc(N)c2c(n1)NC(c1ccc(F)cc1)CC(c1ccc(Nc3nc(NCCO)nc(Nc4ccc(Cl)cc4)n3)cc1)=N2 (stereo not shown) [33f]

>  <Value>
> 100 µM

$$$$
>  <Molecule>
COc1cc(/C=C/C(=O)c2ccccc2)ccc1Oc1nc(Nc2ccc(F)cc2)nc(N(C)C)n1 [21a]

>  <Value>
> 100 µM

$$$$
>  <Molecule>
Nc1nc(N)c2c(n1)NC(c1ccc(Cl)cc1)CC(c1ccc(Nc3nc(NCCO)nc(Nc4ccc(Cl)cc4)n3)cc1)=N2 (stereo not shown) [33e]

>  <Value>
> 100 µM

$$$$

====

GI50 for assorted molecules
- Test system: RXF 393
- Experimental protocol: cells
- Cond: Homo sapiens, RXF 393, 48 h

>  <Molecule>
CN(C)c1nc(NCCNS(=O)(=O)c2ccc(C(=O)/C=C/c3ccccc3)cc2)nc(N2CCOCC2)n1 [23a]

>  <GI50 (µM)>
7.87

$$$$
>  <Molecule>
COc1cc(C2CC(c3ccc(Cl)cc3)=Nc3c(N)nc(N)nc3N2)ccc1Oc1nc(Nc2ccc(F)cc2)nc(N(C)C)n1 (stereo not shown) [29e]

>  <GI50 (µM)>
2.46

$$$$
>  <Molecule>
COc1cc(/C=C/C(=O)c2ccc(S(=O)(=O)NCCNc3nc(Nc4ccc(F)cc4)nc(N(C)C)n3)cc2)cc(OC)c1OC [24d]

>  <GI50 (µM)>
1.45

$$$$
>  <Molecule>
CN(C)c1nc(NCCNS(=O)(=O)c2ccc(C(=O)/C=C/c3ccc(F)cc3)cc2)nc(Nc2ccc(F)cc2)n1 [24f]

>  <GI50 (µM)>
2.26

$$$$
>  <Molecule>
CN(C)c1nc(NCCNS(=O)(=O)c2ccc(C(=O)/C=C/c3ccc(C(F)(F)F)cc3)cc2)nc(N2CCOCC2)n1 [23g]

>  <GI50 (µM)>
11.5

$$$$
>  <Molecule>
Nc1nc(N)c2c(n1)NC(c1ccc(C(F)(F)F)cc1)CC(c1ccc(Nc3nc(NCCO)nc(Nc4ccc(Cl)cc4)n3)cc1)=N2 (stereo not shown) [33g]

>  <GI50 (µM)>
1.14

$$$$
>  <Molecule>
CN(C)c1nc(NCCNS(=O)(=O)c2ccc(C3=Nc4c(N)nc(N)nc4NC(c4ccccc4)C3)cc2)nc(Nc2ccc(F)cc2)n1 (stereo not shown) [31a]

>  <GI50 (µM)>
2.55

$$$$
